Test: total protein half-life in vivo (active degradation + dilution); higher = more stable protein
Settings: E. coli NCM3722 delta-clpP; growth: N-lim chemostat; doubling time 6 h
The entries below come with measured total protein half-life in vivo values attached.
Please state the figure in h; there is no need to write the unit.

seq	total protein half-life in vivo / h
MKTIHDIRRSNARKLRDGVGGNSSFATMIDREPTQTSRFMGDGATKNIGDSMARHIEKCFDLPVGWLDQEHQTTNITKKPDVSITNKQITLVPVISWVQAGAWKEVGYSEVDLSTAETYPCPVPCGEMTYILRVIGDSMIDEYRPGDMIFVDPEVPACHGDDVIALMHDTGETTFKRLIEDGTQRYLKALNPNWPEPYIKINGNCSIIGTVIFSGKPRRYKIKA	5.02
MLKLTDITWLYHHLPMRFSLTVERGEQVAILGPSGAGKSTLLNLIAGFLTPASGSLTIDGVDHTTMPPSRRPVSMLFQENNLFSHLTVAQNIGLGLNPGLKLNAVQQGKMHAIARQMGIDNLMARLPGELSGGQRQRVALARCLVREQPILLLDEPFSALDPALRQEMLTLVSTSCQQQKMTLLMVSHSVEDAARIATRSVVVADGRIAWQGMTNELLSGKASASALLGITG	5.67
MHPRFQTAFAQLADNLQSALEPILADKYFPALLTGEQVSSLKSATGLDEDALAFALLPLAAACARTPLSNFNVGAIARGVSGTWYFGANMEFIGATMQQTVHAEQSAISHAWLSGEKALAAITVNYTPCGHCRQFMNELNSGLDLRIHLPGREAHALRDYLPDAFGPKDLEIKTLLMDEQDHGYALTGDALSQAAIAAANRSHMPYSKSPSGVALECKDGRIFSGSYAENAAFNPTLPPLQGALILLNLKGYDYPDIQRAVLAEKADAPLIQWDATSATLKALGCHSIDRVLLA [P0ABF6]	5.6
MKIAILSRDGTLYSCKRLREAAIQRGHLVEILDPLSCYMNINPAASSIHYKGRKLPHFDAVIPRIGTAITFYGTAALRQFEMLGSYPLNESVAIARARDKLRSMQLLARQGIDLPVTGIAHSPDDTSDLIDMVGGAPLVVKLVEGTQGIGVVLAETRQAAESVIDAFRGLNAHILVQEYIKEAQGCDIRCLVVGDEVVAAIERRAKEGDFRSNLHRGGAASVASITPQEREIAIKAARTMALDVAGVDILRANRGPLVMEVNASPGLEGIEKTTGIDIAGKMIRWIERHATTEYCLKTGG [P0C0U4]	4.13
MDLQHWQAQFENWLKNHHQHQDAAHDVCHFRRVWATAQKLAADDDVDMLVILTACYFHDIVSLAKNHPQRQRSSILAAEETRRLLREEFEQFPAEKIEAVCHAIAAHSFSAQIAPLTTEAKIVQDADRLEALGAIGLARVFAVSGALGVALFDGEDPFAQHRPLDDKRYALDHFQTKLLKLPQTMQTARGKQLAQHNAHFLVEFMAKLSAELAGENEGVDHKVIDAFSSAG	3.48

# context switch: different sequence, same total protein half-life in vivo
Need total protein half-life in vivo, item MTVETQLNPTQPVNQQIYRILRRDIVHCLIAPGTPLSEKEVSVRFNVSRQPVREAFIKLAENGLIQIRPQRGSYVNKISMAQVRNGSFIRQAIECAVARRAASMITESQCYQLEQNLHQQRIAIERKQLDDFFELDDNFHQLLTQIADCQLAWDTIENLKATVDRVRYMSFDHVSPPEMLLRQHLDIFSALQKRDGDAVERAMTQHLQEISESVRQIRQENSDWFSEE [P0ACM2]
7.72

----------
Assay: total protein half-life in vivo (active degradation + dilution); higher = more stable protein
Settings: wild type E. coli NCM3722; growth: P-lim chemostat; doubling time 12 h
The entries below come with measured total protein half-life in vivo values attached.
Please state the figure in h; there is no need to write the unit.

Below are worked cases with known answers.
seq	total protein half-life in vivo [h]
MKSLQALFGGTFDPVHYGHLKPVETLANLIGLTRVTIIPNNVPPHRPQPEANSVQRKHMLELAIADKPLFTLDERELKRNAPSYTAQTLKEWRQEQGPDVPLAFIIGQDSLLTFPTWYEYETILDNAHLIVCRRPGYPLEMAQPQYQQWLEDHLTHNPEDLHLQPAGKIYLAETPWFNISATIIRERLQNGESCEDLLPEPVLTYINQQGLYR [P0A752]	8.78
MTTKRKPYVRPMTSTWWKKLPFYRFYMLREGTAVPAVWFSIELIFGLFALKNGPEAWAGFVDFLQNPVIVIINLITLAAALLHTKTWFELAPKAANIIVKDEKMGPEPIIKSLWAVTVVATIVILFVALYW [P0A8Q0]	12.5

# context switch: different sequence, same total protein half-life in vivo
Need total protein half-life in vivo, item `MTTMLEVAKRAGVSKATVSRVLSGNGYVSQETKDRVFQAVEESGYRPNLLARNLSAKSTQTLGLVVTNTLYHGIYFSELLFHAARMAEEKGRQLLLADGKHSAEEERQAIQYLLDLRCDAIMIYPRFLSVDEIDDIIDAHSQPIMVLNRRLRKNSSHSVWCDHKQTSFNAVAELINAGHQEIAFLTGSMDSPTSIERLAGYKDALAQHGIALNEKLIANGKWTPASGAEGVEMLLERGAKFSALVASNDDMAIGAMKALHERGVAVPEQVSVIGFDDIAIAPYTVPALSSVKIPVTEMIQEIIGRLIFMLDGGDFSPPKTFSGKLIRRDSLIAPSR`
7.06

----------
Assay: total protein half-life in vivo (active degradation + dilution); higher = more stable protein
Conditions: wild type E. coli NCM3722; growth: N-lim chemostat; doubling time 12 h
The entries below come with measured total protein half-life in vivo values attached.

seq	total protein half-life in vivo
MTRPIQASLDLQALKQNLSIVRQAATHARVWSVVKANAYGHGIERIWSAIGATDGFALLNLEEAITLRERGWKGPILMLEGFFHAQDLEIYDQHRLTTCVHSNWQLKALQNARLKAPLDIYLKVNSGMNRLGFQPDRVLTVWQQLRAMANVGEMTLMSHFAEAEHPDGISGAMARIEQAAEGLECRRSLSNSAATLWHPEAHFDWVRPGIILYGASPSGQWRDIANTGLRPVMTLSSEIIGVQTLKAGERVGYGGRYTARDEQRIGIVAAGYADGYPRHAPTGTPVLVDGVRTMTVGTVSMDMLAVDLTPCPQAGIGTPVELWGKEIKIDDVAAAAGTVGYELMCALALRVPVVTV	5.1 h

# context switch: different sequence, same total protein half-life in vivo
Need total protein half-life in vivo, item `MSNLTYLQGYPEQLLSQVRTLINEQRLGDVLAKRYPGTHDYATDKALWQYTQDLKNQFLRNAPPINKVMYDNKIHVLKNALGLHTAVSRVQGGKLKAKVEIRVATVFRNAPEPFLRMIVVHELAHLKEKEHNKAFYQLCCHMEPQYHQLEFDTRLWLTQLSLGQNKI`
1.54 h

----------
Experiment: total protein half-life in vivo (active degradation + dilution); higher = more stable protein
Conditions: wild type E. coli NCM3722; growth: P-lim chemostat; doubling time 12 h
quantityKind: total protein half-life in vivo (h)
Please state the figure in h; there is no need to write the unit.

Below are worked cases with known answers.
seq	total protein half-life in vivo (h)
MPLLDSFTVDHTRMEAPAVRVAKTMNTPHGDAITVFDLRFCVPNKEVMPERGIHTLEHLFAGFMRNHLNGNGVEIIDISPMGCRTGFYMSLIGTPDEQRVADAWKAAMEDVLKVQDQNQIPELNVYQCGTYQMHSLQEAQDIARSILERDVRINSNEELALPKEKLQELHI	9.47
MDLRRFITLKTVVEEGSFLRASQKLCCTQSTVTFHIQQLEQEFSVQLFEKIGRRMCLTREGKKLLPHIYELTRVMDTLREAAKKESDPDGELRVVSGETLLSYRMPQVLQRFRQRAPKVRLSLQSLNCYVIRDALLNDEADVGVFYRVGNDDALNRRELGEQSLVLVASPQIADVDFTEPGRHNACSFIINEPQCVFRQIFESTLRQRRITVENTIELISIESIKRCVAANIGVSYLPRFAVAKELECGELIELPFGEQSQTITAMCAHHAGKAVSPAMHTFIQCVEESFVAG	7.91

# context switch: different sequence, same total protein half-life in vivo
Need total protein half-life in vivo, item MNIRDLEYLVALAEHRHFRRAADSCHVSQPTLSGQIRKLEDELGVMLLERTSRKVLFTQAGMLLVDQARTVLREVKVLKEMASQQGETMSGPLHIGLIPTVGPYLLPHIIPMLHQTFPKLEMYLHEAQTHQLLAQLDSGKLDCVILALVKESEAFIEVPLFDEPMLLAIYEDHPWANRECVPMADLAGEKLLMLEDGHCLRDQAMGFCFEAGADEDTHFRATSLETLRNMVAAGSGITLLPALAVPPERKRDGVVYLPCIKPEPRRTIGLVYRPGSPLRSRYEQLAEAIRARMDGHFDKVLKQAV [P0ACQ4]
9.98
